// data source = patent US20240391954A1

Exercise: state measured MC4R selectivity vs MC3R for each of the molecules provided.
systemTested: human MC3R (Homo sapiens)
Construct: expressed in transfected cells; host or cells: HEK-293 cells stably expressing the GScAMP22F split-luciferase cAMP sensor (parent reporter line from Promega); MC3R clone generated in-house, G418 selection
Sequence (P41968 whole entry): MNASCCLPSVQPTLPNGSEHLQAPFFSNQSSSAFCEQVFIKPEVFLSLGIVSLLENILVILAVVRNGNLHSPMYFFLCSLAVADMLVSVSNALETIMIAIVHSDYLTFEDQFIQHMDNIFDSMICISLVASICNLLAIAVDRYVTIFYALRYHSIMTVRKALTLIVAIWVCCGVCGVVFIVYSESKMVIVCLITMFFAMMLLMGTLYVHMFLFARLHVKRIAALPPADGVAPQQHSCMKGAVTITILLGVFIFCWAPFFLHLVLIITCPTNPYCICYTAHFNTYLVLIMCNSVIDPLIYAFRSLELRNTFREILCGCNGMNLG
protocolNotes: split-luciferase cAMP sensor assay, agonist mode (measurement window 1), hMC3R
Format: cell-based
assayConditions: MC4R versus MC3R
Method: The stable cell lines were grown and maintained in selection media consisting of Dulbecco's modified Eagle media (DMEM) with 4.5 g/l D-glucose, and 4 mM L-glutamine (Thermo Fisher Scientific, Waltham, MA), supplemented with 10% fetal bovine serum, 100 units/ml penicillin, 100 μg/ml streptomycin, 2.5 μg/ml amphotericin B, 200 μg/ml hygromycin B (for positive selection of the GScAMP22f luciferase reporter), and Geneticin™ (G418) 700 μg/ml (for MC3R or MC4R selection). […]
Positions of bridges follow the written chain, without caps; N, C: chain ends. Non-standard residues stand in square brackets, D forms with d. Residues, ends and D or L forms follow the SMILES beside them. Cit = NC(=O)NCCC[C@H](N)C(=O)O; Aib = CC(C)(N)C(=O)O
I'd appreciate a reply containing only the number, no unit.

Lookup: Fill in MC4R selectivity vs MC3R for record CC(=O)N[C@@H](CCCNC(=N)N)C(=O)N[C@H]1CSSC[C@@H](C(N)=O)NC(=O)[C@@H](Cc2c[nH]c3ccccc23)NC(=O)[C@H](CCCNC(=N)N)NC(=O)[C@@H](Cc2ccccc2)NC(=O)[C@H](Cc2c[nH]cn2)NC(=O)C(C)(C)NC1=O
Found: 22

Lookup: Fill in MC4R selectivity vs MC3R for record CC1(C)NC(=O)CSC[C@@H](C(N)=O)NC(=O)[C@H](Cc2c[nH]c3ccccc23)NC(=O)[C@H](CCCNC(=N)N)NC(=O)[C@@H](Cc2ccccc2)NC(=O)[C@H](CCCNC(N)=O)NC1=O [CTX-1649] ({CH2CO}-[Aib][Cit][dF]RWC-NH2; thioether N-6)
Found: 72

* * *

systemTested: human MC3R (Homo sapiens)
Construct: expressed in transfected cells; host or cells: HEK-293 cells stably expressing the GScAMP22F split-luciferase cAMP sensor (parent reporter line from Promega); MC3R clone generated in-house, G418 selection
protocolNotes: split-luciferase cAMP sensor assay, agonist mode (measurement window 1), hMC3R
Format: cell-based
assayConditions: MC4R versus MC3R
Positions of bridges follow the written chain, without caps; N, C: chain ends. Non-standard residues stand in square brackets, D forms with d. Residues, ends and D or L forms follow the SMILES beside them. NMeR = CN[C@@H](CCCNC(=N)N)C(=O)O; Orn = NCCC[C@H](N)C(=O)O; Aib = CC(C)(N)C(=O)O
Exercise: state measured MC4R selectivity vs MC3R for each of the compounds provided.
I'd appreciate a reply containing only the number, no unit.

Lookup: Provide MC4R selectivity vs MC3R, recorded with human MC3R (Homo sapiens), of CC(=O)N[C@@H](CCCNC(=N)N)C(=O)N[C@H]1CSSC[C@@H](C(N)=O)NC(=O)[C@@H](Cc2c[nH]c3ccccc23)NC(=O)[C@H](CCCNC(=N)N)N(C)C(=O)[C@@H](Cc2ccccc2)NC(=O)[C@H](CCCNC(=N)N)NC(=O)[C@@H](C)NC1=O [CTX-1284] (Ac-RC[dA]R[dF][NMeR][dW]C-NH2; disulfide 2-8)
Found: 8.11

Lookup: Provide MC4R selectivity vs MC3R, recorded with human MC3R (Homo sapiens), of CC(=O)N[C@@H](CCCNC(=N)N)C(=O)N[C@H]1CSSC[C@@H](C(N)=O)NC(=O)[C@H](Cc2ccccc2)NC(=O)[C@H](CCCNC(=N)N)NC(=O)[C@@H](Cc2ccccc2)NC(=O)[C@H](CCCN)NC(=O)C(C)(C)NC1=O [CTX-1602, Arg-cyclo(Cys-Aib-Orn-D-Phe-Arg-Phe-Cys)] (Ac-RC[Aib][Orn][dF]RFC-NH2; disulfide 2-8)
Found: 3.44

Lookup: Provide MC4R selectivity vs MC3R, recorded with human MC3R (Homo sapiens), of CC(=O)N[C@@H](CCCNC(=N)N)C(=O)N[C@H]1CSSC[C@@H](C(N)=O)NC(=O)[C@H](Cc2c[nH]c3ccccc23)NC(=O)[C@H](CCCNC(=N)N)NC(=O)[C@@H](Cc2ccccc2)NC(=O)[C@H](CCCNC(N)=O)NC(=O)[C@@H](C)NC1=O [CTX-1285]
Found: 2.9

* * *

systemTested: human MC4R (Homo sapiens, UniProt P32245)
Construct: host or cells: HEK-293 cells stably expressing the GScAMP22F split-luciferase cAMP sensor and hMC4R, G418 selection
Sequence (P32245 whole entry): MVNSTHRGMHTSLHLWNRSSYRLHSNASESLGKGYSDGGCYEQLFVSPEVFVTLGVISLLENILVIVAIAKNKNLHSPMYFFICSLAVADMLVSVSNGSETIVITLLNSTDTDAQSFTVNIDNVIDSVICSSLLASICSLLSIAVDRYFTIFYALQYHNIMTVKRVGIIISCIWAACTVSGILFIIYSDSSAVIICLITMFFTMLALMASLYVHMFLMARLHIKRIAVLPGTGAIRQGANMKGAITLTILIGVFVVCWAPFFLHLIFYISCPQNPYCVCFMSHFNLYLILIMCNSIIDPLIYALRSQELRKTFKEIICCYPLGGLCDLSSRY
protocolNotes: split-luciferase cAMP sensor assay, agonist mode (measurement window 1), hMC4R
Format: cell-based
assayConditions: agonist mode, hMC4R stable cell line; read-out: MC4R cAMP % max activation
Positions of bridges follow the written chain, without caps; N, C: chain ends. Non-standard residues stand in square brackets, D forms with d. Residues, ends and D or L forms follow the SMILES beside them. dPhe(4-Br) = N[C@H](Cc1ccc(Br)cc1)C(=O)O; d(αMeF) = C[C@@](N)(Cc1ccccc1)C(=O)O; dTic = O=C(O)[C@H]1Cc2ccccc2CN1; Cit = NC(=O)NCCC[C@H](N)C(=O)O; Aib = CC(C)(N)C(=O)O
Exercise: state measured Emax for each of the molecules provided.
Respond with the bare value in %.

Lookup: Fill in Emax for record CC(=O)N[C@@H](CCCNC(=N)N)C(=O)N[C@H]1CSSC[C@@H](C(N)=O)NC(=O)[C@H]2Cc3ccccc3CN2C(=O)[C@H](CCCNC(=N)N)NC(=O)[C@@H](Cc2ccc(Br)cc2)NC(=O)[C@H](CCCNC(=N)N)NC(=O)[C@@H](C)NC1=O [CTX-1256] (Ac-RC[dA]R[dPhe(4-Br)]R[dTic]C-NH2; disulfide 2-8 (inferred))
Found: 29

Lookup: Fill in Emax for record COc1ccc(C[C@H]2NC(=O)[C@H](CCCNC(N)=O)NC(=O)C(C)(C)NC(=O)[C@@H](NC(=O)[C@H](CCCNC(=N)N)NC(C)=O)CSSC[C@@H](C(N)=O)NC(=O)[C@@H](Cc3c[nH]c4ccccc34)NC(=O)[C@H](CCCNC(=N)N)NC2=O)cc1 [CTX-1600] (Ac-RC[Aib][Cit][dY](Me)R[dW]C-NH2; disulfide 2-8)
Found: 58

Lookup: Fill in Emax for record CC(=O)N[C@@H](CCCNC(=N)N)C(=O)N[C@H]1CSSC[C@@H](C(N)=O)NC(=O)[C@@H](Cc2c[nH]c3ccccc23)NC(=O)[C@H](CCCNC(=N)N)NC(=O)[C@@](C)(Cc2ccccc2)NC(=O)[C@H](CCCNC(=N)N)NC(=O)[C@@H](C)NC1=O [CTX-1279] (Ac-RC[dA]R[d(αMeF)]R[dW]C-NH2; disulfide 2-8)
Found: 79

Lookup: Fill in Emax for record CC(=O)N[C@@H](CCCNC(=N)N)C(=O)N[C@H]1CSSC[C@@H](C(N)=O)NC(=O)[C@@H](Cc2c[nH]c3ccccc23)NC(=O)[C@@H](CCCNC(=N)N)NC(=O)[C@@H](Cc2ccc(Br)cc2)NC(=O)[C@H](CCCNC(=N)N)NC(=O)[C@@H](C)NC1=O [CTX-1252] (Ac-RC[dA]R[dPhe(4-Br)][dR][dW]C-NH2; disulfide 2-8 (inferred))
Found: 4.4
